Quick note: these are IC50 numbers for system: Vps34 (Homo sapiens (Human), UniProt Q8NEB9)
Sequence (Q8NEB9 whole entry, species assumed): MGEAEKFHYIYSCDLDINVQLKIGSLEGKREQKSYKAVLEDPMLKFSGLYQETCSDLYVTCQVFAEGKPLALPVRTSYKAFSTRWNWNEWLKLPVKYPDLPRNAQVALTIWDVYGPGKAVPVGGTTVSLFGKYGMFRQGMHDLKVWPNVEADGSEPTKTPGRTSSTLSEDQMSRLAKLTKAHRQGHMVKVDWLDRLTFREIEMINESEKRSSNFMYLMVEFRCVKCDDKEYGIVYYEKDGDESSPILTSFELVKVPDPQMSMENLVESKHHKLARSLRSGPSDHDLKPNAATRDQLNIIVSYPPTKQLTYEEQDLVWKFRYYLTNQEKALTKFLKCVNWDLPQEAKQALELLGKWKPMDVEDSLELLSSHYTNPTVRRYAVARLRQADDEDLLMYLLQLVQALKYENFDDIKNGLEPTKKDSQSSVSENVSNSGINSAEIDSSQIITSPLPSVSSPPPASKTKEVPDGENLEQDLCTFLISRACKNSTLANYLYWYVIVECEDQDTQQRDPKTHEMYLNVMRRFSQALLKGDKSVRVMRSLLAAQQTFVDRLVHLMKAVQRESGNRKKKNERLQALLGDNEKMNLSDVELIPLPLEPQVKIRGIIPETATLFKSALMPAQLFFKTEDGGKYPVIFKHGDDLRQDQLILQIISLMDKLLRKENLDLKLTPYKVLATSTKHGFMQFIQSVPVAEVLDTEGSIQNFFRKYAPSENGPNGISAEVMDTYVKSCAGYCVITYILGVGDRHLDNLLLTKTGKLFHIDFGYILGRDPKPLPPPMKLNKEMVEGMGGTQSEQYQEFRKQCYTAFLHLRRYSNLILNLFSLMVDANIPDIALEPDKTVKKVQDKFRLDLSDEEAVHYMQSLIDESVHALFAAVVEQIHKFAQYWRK
I only need the number, in µM, no unit after it.

// below: answered molecules
Cc1ncc(-c2cncc(-c3cc(S(=O)(=O)N[C@H]4CC[C@H](O)CC4)ccc3C)n2)s1; 1.81
Cc1ccc(S(=O)(=O)N[C@H]2CC[C@H](O)CC2)cc1-c1cncc(-c2cccnc2)n1; 3.08
Cc1ccc(S(=O)(=O)NCC(C)(C)CO)cc1-c1cncc(-c2cn(C)nc2C)n1; 4.4
Cc1ccc(S(=O)(=O)NCCC(C)(C)O)cc1-c1cncc(-c2cn(C)nc2C)n1; 5.3

Entry `Cc1ccc(S(=O)(=O)NCC(C)(C)O)cc1-c1cncc(-c2cn(C)nc2C)n1` ; assay system Vps34 (Homo sapiens (Human), UniProt Q8NEB9); IC50 recorded at 3.45
